Recorded values, source the METLIN SMRT retention time set (Domingo-Almenara et al. 2019).

protocol: gradient 5% acetonitrile 3 min, to 50% in 2 min, to 85% in 15 min, held 3 min, 100 µL/min
experimental-context: column: Zorbax Extend-C18 2.1 x 50 mm; eluents: water / acetonitrile, 0.1% formic acid
measurement-label: RP-LC retention time (s)

molecule | RP-LC retention time (s)
CNCCc1cnc(CCC(c2ccccc2)c2ccccc2)[nH]1 | 608
O=C(c1ccc2c(c1)OCO2)N1CC2CN(S(=O)(=O)c3ccc(F)cc3)CC(C1)O2 | 774
Cc1cccc(N2CCN(CC(O)c3ccc4c(c3)OCO4)CC2)c1C (centres undefined) | 720
COc1ccc(-c2noc(C3(NC(=O)COc4ccccc4)CCCCC3)n2)cc1 | 1170

1. COc1ccc(-c2nc(NCc3cccnc3)c3ccccc3n2)cc1
2. Cc1cc(N2CCCCC2)nc(N2CCN(C(=O)c3ccc(-c4ccccc4)cc3)CC2)n1
I'm curious whether 1 or 2 has the smaller RP-LC retention time number. Which is it? Identify your selection by its label.
1
(1: 574 s, 2: 837 s)

a. CCOc1nc2ccccc2nc1N1CCCC(C(=O)Nc2cccc(Cl)c2C)C1 (centres undefined)
b. CC(C)CN1CCn2cc(S(=O)(=O)NCc3ccc(F)cc3Cl)cc2C1=O
I'm curious whether a or b has the smaller RP-LC retention time number. Which is it? Identify your selection by its label.
b

A. O=C(COc1ccccc1)Nc1nc(-c2ccc(F)cc2)cs1
B. Cc1cc(=O)n(CC(=O)Nc2ccc(C)c(C)c2)c(N2CCCC2)n1
Thinking about recorded RP-LC retention time values, which is higher, A or B ? Identify your selection by its label.
A
(A: 1050 s, B: 668 s)

A. CCOC(=O)C1CCN(C(=O)c2ccc(-c3nc4ccccc4n(CC(C)C)c3=O)cc2)CC1
B. CCCN(Cc1ccc(OC)c(OC)c1)Cc1cc(=O)n2ccccc2n1
Thinking about recorded RP-LC retention time values, which is higher, A or B ? Identify your selection by its label.
A
